Source listed as patent US7759366B2.

- measured target: hCB1R (Homo sapiens, UniProt P21554)
- Sequence (P21554 whole entry): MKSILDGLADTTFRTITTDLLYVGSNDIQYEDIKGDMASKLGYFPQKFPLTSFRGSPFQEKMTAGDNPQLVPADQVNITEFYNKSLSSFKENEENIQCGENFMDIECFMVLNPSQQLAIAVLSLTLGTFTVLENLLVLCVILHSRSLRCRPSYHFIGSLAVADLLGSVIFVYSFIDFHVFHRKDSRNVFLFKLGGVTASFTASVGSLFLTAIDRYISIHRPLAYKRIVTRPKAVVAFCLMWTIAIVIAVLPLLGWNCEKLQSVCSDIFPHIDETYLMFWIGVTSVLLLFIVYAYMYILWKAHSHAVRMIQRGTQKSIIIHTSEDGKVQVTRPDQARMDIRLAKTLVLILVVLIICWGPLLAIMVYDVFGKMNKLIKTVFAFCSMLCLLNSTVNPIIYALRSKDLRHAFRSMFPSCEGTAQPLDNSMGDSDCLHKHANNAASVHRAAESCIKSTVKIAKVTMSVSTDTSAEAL
- method: Binding to the CB1 receptor ([3H]-SR141716A displacement)
- particulars: CHO-K1/cannabinoid CB1 protein 2 μg/well; [3H]-SR141716A 0.5 nM; Ki from IC50 by Cheng-Prusoff; average of double determination; read-out: hCB1R; binding Ki
property measured: Ki (nM)
Please give a number only; it is taken to be in nM.

Example entries and their recorded answers appear below.
{"molecule": "CC1(C)C(=O)N(c2ccnc(C(F)(F)F)c2)C(=O)N1Cc1ccccc1Nc1ccc(F)cc1F", "property measured": "Ki", "unit name": "nM", "readout number": 7}
{"molecule": "CC1(C)C(=O)N(c2ccc(C#N)nc2)C(=O)N1Cc1ccccc1Nc1ccccc1", "property measured": "Ki", "unit name": "nM", "readout number": 113}

For the next question, use this molecule.
For the record "CC1(C)C(=O)N(c2ccc(C#N)c(C(F)(F)F)c2)C(=O)N1Cc1ccccc1Nc1ccc(N(S(C)(=O)=O)S(C)(=O)=O)cc1" , what value of Ki is listed for hCB1R (Homo sapiens, UniProt P21554)?
130

----------
compounds and their reported pIC50
- measured target: hCB1R (Homo sapiens, UniProt P21554)
- method: In vitro functional assay (FLIPR, intracellular Ca2+) with recombinant HEK293 cells, CB1
- Assay type: cell-based
- Parameters: expressed in transfected cells; host or cells: HEK293
- particulars: recombinant HEK293 cells expressing CB1 and Galpha16; 20 min preincubation, then reference agonist; Ca2+ change; read-out: hCB1R: FLIPR; IC50
Just the number, please; pIC50 means minus log10 of the concentration in mol/L.

For "CC1(C)C(=O)N(c2ccc(F)c(C(F)(F)F)c2)C(=O)N1Cc1ccc(F)cc1Nc1ccc(F)nc1" , what is its reported pIC50?
8.70

Name the recorded pIC50 for "CC1(C)C(=O)N(c2ccc(C#N)c(-c3ccc(F)cc3)c2)C(=O)N1Cc1ccc(F)cc1Nc1ccc(C(=O)O)cc1" .
7.51

Which pIC50 value is on record for "CC(C(=O)O)(C(=O)O)c1ccc(Nc2ccccc2CN2C(=O)N(c3ccc(C#N)c(C(F)(F)F)c3)C(=O)C2(C)C)cc1" ?
7.66

----------
- measured target: hCB1R (Homo sapiens, UniProt P21554)
- method: In vitro functional assay (FLIPR, intracellular Ca2+) with recombinant HEK293 cells, CB1
- Format: cell-based
- Design: expressed in transfected cells; host or cells: HEK293
- particulars: recombinant HEK293 cells expressing CB1 and Galpha16; 20 min preincubation, then reference agonist; Ca2+ change; read-out: hCB1R: FLIPR; IC50
Form field: pIC50 (one value per entry).
The read-out pIC50 is expressed as -log10 of concentration in moles per litre.

Worked cases, pIC50 given:
{"molecule smiles": "CC1(C)C(=O)N(c2ccc(C#N)c(C(F)(F)F)c2)C(=O)N1Cc1ccc(C(F)(F)F)cc1Nc1ccc(F)cc1", "pIC50": 8.00}
{"molecule smiles": "CC1(C)C(=O)N(c2ccc(C#N)c(C(F)(F)F)c2)C(=O)N1Cc1ccc(F)cc1Nc1ccc(C(=O)O)cc1", "pIC50": 8.00}

# input for lookup
Recorded pIC50 of "CC1(C)C(=O)N(c2ccc(C#N)c(C(F)(F)F)c2)C(=O)N1Cc1ccccc1Nc1ccccc1Cl" , please.
8.00
